Test system: Selenastrum capricornutum
Assay: Rapid bioassay screening for selective algicides (LOEC, LCIC)
Format: cell-based
Conditions: rapid screening
parameter.measured: LCIC (lowest-complete-inhibition concentration), Selenastrum capricornutum

smi: COCCOCCOCCOCc1ccc2c(c1)C(=O)c1ccccc1C2=O
target.desc: Selenastrum capricornutum
result.value: >100,000 nM
//
smi: CCCCN(CCCC)Cc1ccc2c(c1)C(=O)c1ccccc1C2=O.O=P(O)(O)O
target.desc: Selenastrum capricornutum
result.value: 1e+06 nM
//
smi: CCN(CC)Cc1ccc2c(c1)C(=O)c1ccccc1C2=O.O=P(O)(O)O
target.desc: Selenastrum capricornutum
result.value: 100,000 nM
//
smi: CC(C)(C)NCc1ccc2c(c1)C(=O)c1ccccc1C2=O.O=P(O)(O)O
target.desc: Selenastrum capricornutum
result.value: 10,000 nM
//
smi: CCCNCc1ccc2c(c1)C(=O)c1ccccc1C2=O.O=P(O)(O)O
target.desc: Selenastrum capricornutum
result.value: 10,000 nM
//
smi: CC(C)N(Cc1ccc2c(c1)C(=O)c1ccccc1C2=O)C(C)C.O=P(O)(O)O
target.desc: Selenastrum capricornutum
result.value: 1e+06 nM
//
smi: CCNCc1ccc2c(c1)C(=O)c1ccccc1C2=O.O=P(O)(O)O
target.desc: Selenastrum capricornutum
result.value: 10,000 nM

* * *

Assay: DNA2-59-1 third efficacy study: dissipation rate and half-life in pond water (HPLC)
Assay type: physicochemical
Conditions: third study, 0.3 μM applied, 0 hours
Experimental: For the third efficacy test with DNA2-59-1, twelve limnocorrals (2.44 m in diameter and 1.53 m high) were placed in a 4-ha earthen pond containing a bloom of O. perornata. […] Filtrate samples were analyzed using a Waters 2690 Alliance HPLC containing a 996 PDA detector and a XTerra RP 18 column (150 mm×4.6 mm, 5 μm particle size; Waters Corporation, Milford, Mass.). […] Means and standard deviations of data were determined and graphed. […]
parameter.measured: DNA2-59-1 Levels in Pond Water (µg/L)

smi: CC(C)NCc1ccc2c(c1)C(=O)c1ccccc1C2=O
result.value: 90.6

* * *

Assay: DNA2-59-1 second efficacy study: dissipation rate and half-life in pond water (HPLC)
Assay type: physicochemical
Details: second study, 0.3 μM applied, 48 hours

compound: CC(C)NCc1ccc2c(c1)C(=O)c1ccccc1C2=O [DNA2-59-1]
DNA2-59-1 Levels in Pond Water, µg/L: 16.3

* * *

MIC values for the compounds below.
System: Selenastrum capricornutum
Experiment: Rapid bioassay screening for selective algicides (LOEC, LCIC)
Type: cell-based
Conditions: Selenastrum capricornutum; rapid screening; read-out: LCIC (lowest-complete-inhibition concentration), Selenastrum capricornutum

compound: COCCOCCOCCOCCOc1cccc2c1C(=O)c1ccccc1C2=O
MIC: > 100 µM

compound: O=C1c2cccc(O)c2C(=O)c2c(O)cccc21 [1,8-dihydroxyanthraquinone, reference compound]
MIC: > 100 µM

compound: Nc1ccc2c(c1)C(=O)c1ccccc1C2=O [2-aminoanthraquinone, reference compound]
MIC: > 100 µM

compound: O=C1c2ccccc2C(=O)c2cc(OCCOCCOCCOCCOCCO)ccc21
MIC: > 100 µM

compound: CC(C)NCc1ccc2c(c1)C(=O)c1ccccc1C2=O
MIC: 100 µM

compound: O=C1c2cccc(S(=O)(=O)O)c2C(=O)c2cccc(S(=O)(=O)O)c21 [anthraquinone-1,5-disulfonic acid, reference compound]
MIC: > 1000 µM

compound: COCCOCCOc1ccc2c(c1)C(=O)c1ccccc1C2=O
MIC: > 100 µM

compound: COCCOc1ccc2c(c1)C(=O)c1ccccc1C2=O
MIC: > 100 µM
